system: NEK11; details: concentration: 1 μM,replicates: in singlicate; n = 1;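 further: KINOMEscan kinase panel screen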
assay endpoint: %Inh (%)
Give just the numeric value; % need not be written.

Qu. Value lookup for %Inh; key = Nc1nc(Nc2ccccc2)cc(-c2ccc3c(N)n[nH]c3c2)n1 [GSK2225749]
Ans. 11

Qu. Value lookup for %Inh; key = `Cc1cc(C(=O)Nc2ccc(Oc3ccc4nc(NC(=O)C5CC5)cn4n3)cc2)nn1-c1ccccc1`
Ans. 0

Qu. Value lookup for %Inh; key = `CCN(CC)CCCCNc1ncc2cc(-c3c(Cl)cccc3Cl)c(NC(=O)NC(C)(C)C)nc2n1`
Ans. 0

Qu. Value lookup for %Inh; key = COc1ccc(C[C@@H](CN)NC(=O)c2cc(Br)c(-c3ccnc4[nH]ccc34)s2)cc1.Cl.Cl [GSK1389063]
Ans. 14

Qu. Value lookup for %Inh; key = Cl.Cl.NC[C@H](Cc1ccc(C(F)(F)F)cc1)NC(=O)c1cc(Br)c(-c2ccnc3[nH]ccc23)s1 [GSK1487252]
Ans. 0

Qu. Value lookup for %Inh; key = CN(C)CCOc1ccc(-c2cc(-c3c[nH]nc3-c3ccccn3)ccn2)cc1 [GW835314]
Ans. 25

Qu. Value lookup for %Inh; key = `C[C@@H]1CCN(C(=O)CC#N)C[C@@H]1N(C)c1ncnc2[nH]ccc12`
Ans. 0

Qu. Value lookup for %Inh; key = `CNC(=O)c1ccccc1Sc1ccc2c(/C=C/c3ccccn3)n[nH]c2c1`
Ans. 0

Qu. Value lookup for %Inh; key = CC(C)Nc1cc(-c2ccc3c(N)n[nH]c3c2)nc(N)n1 [GSK2221681]
Ans. 0

Qu. Value lookup for %Inh; key = Cl.Oc1cc(-c2nc(-c3ccccc3)[nH]c2-c2ccncc2)ccc1Cl [SB-386023]
Ans. 18

Qu. Value lookup for %Inh; key = `C[C@H]1Oc2cc(cnc2N)-c2c(nn(C)c2C#N)CN(C)C(=O)c2ccc(F)cc21`
Ans. 0

Qu. Value lookup for %Inh; key = NC(=O)c1cc(-c2ccccc2)cc2c(C3CCNCC3)c[nH]c12 [GSK301362]
Ans. 0

Qu. Value lookup for %Inh; key = Cc1ccc2c(-c3ccncc3)c(-c3ccc(F)cc3)nn2c1.Cl [GW461484]
Ans. 21

Qu. Value lookup for %Inh; key = Cc1occc1-c1nc(N)c(OC[C@@H](N)Cc2c[nH]c3ccccc23)cc1-c1cc2c(C)n[nH]c2cn1 [GSK1660450]
Ans. 0

Qu. Value lookup for %Inh; key = CCn1c(-c2nonc2N)nc2c(C#CC(C)(C)O)nc(OCCN)cc21.Cl.Cl [GSK902056]
Ans. 3

----------
system: HPK1; conditions: concentration: 1 μM,replicates: in singlicate; n = 1
Give measured %Inh for each item. Keep answers brief.
Give just the numeric value; % need not be written.

Qu. Value lookup for %Inh; key = Nc1nc(Nc2ccccc2)cc(-c2ccc3c(N)n[nH]c3c2)n1 [GSK2225749]
Ans. 2

Qu. Value lookup for %Inh; key = Cc1ccc(-n2nc(C(C)(C)C)cc2NC(=O)Nc2ccc(OCCN3CCOCC3)c3ccccc23)cc1 [GW839464]
Ans. 0

Qu. Value lookup for %Inh; key = `O=C(NCCCN1CCOC1=O)c1cnc(NCc2cc(Cl)ccc2Cl)nc1NC1CCCC1`
Ans. 29

Qu. Value lookup for %Inh; key = `CC(C)N1C(=O)Cc2cc(Nc3ncc(C(F)(F)F)c(NCc4cccc(S(C)(=O)=O)c4)n3)ccc21`
Ans. 41

Qu. Value lookup for %Inh; key = Cc1ccc2c(-c3ccncc3)c(-c3ccc(F)cc3)nn2c1.Cl [GW461484]
Ans. 0

Qu. Value lookup for %Inh; key = C=CC(=O)Nc1cc2c(Nc3ccc(F)c(Cl)c3)ncnc2cc1OCCCN1CCOCC1 [GW781483]
Ans. 14

Qu. Value lookup for %Inh; key = CCn1c(-c2nonc2N)nc2c(C#CC(C)(C)O)nc(OCCN)cc21.Cl.Cl [GSK902056]
Ans. 42

Qu. Value lookup for %Inh; key = `C[C@H]1Oc2cc(cnc2N)-c2c(nn(C)c2C#N)CN(C)C(=O)c2ccc(F)cc21`
Ans. 17

Qu. Value lookup for %Inh; key = Cl.Oc1cc(-c2nc(-c3ccccc3)[nH]c2-c2ccncc2)ccc1Cl [SB-386023]
Ans. 17

Qu. Value lookup for %Inh; key = CC(C)Nc1cc(-c2ccc3c(N)n[nH]c3c2)nc(N)n1 [GSK2221681]
Ans. 33

Qu. Value lookup for %Inh; key = Cl.Cl.NC[C@H](CC1CCCCC1)NC(=O)c1cc(Br)c(-c2ccnc3[nH]ccc23)s1 [GSK1581427]
Ans. 67

Qu. Value lookup for %Inh; key = `CNC(=O)c1ccccc1Sc1ccc2c(/C=C/c3ccccn3)n[nH]c2c1`
Ans. 46

Qu. Value lookup for %Inh; key = `Cc1cc(C(=O)Nc2ccc(Oc3ccc4nc(NC(=O)C5CC5)cn4n3)cc2)nn1-c1ccccc1`
Ans. 42

Qu. Value lookup for %Inh; key = `Cc1cc2cn[nH]c2cc1-c1cccc2c(N)c(C(N)=O)nnc12`
Ans. 11

Qu. Value lookup for %Inh; key = CCN(CC)CCOc1ccc(Nc2ncc3cc(-c4c(Cl)cccc4Cl)c(=O)n(C)c3n2)cc1 [SB-601273]
Ans. 98.8

Qu. Value lookup for %Inh; key = COc1ccc(C[C@@H](CN)NC(=O)c2cc(Br)c(-c3ccnc4[nH]ccc34)s2)cc1.Cl.Cl [GSK1389063]
Ans. 77

----------
system: NEK5; conditions: concentration: 1 μM,replicates: in singlicate; n = 1
assay endpoint: %Inh (%)
Give just the numeric value; % need not be written.

Qu. Reported %Inh for NEK5, given `NC(=O)c1cc(-c2ccccc2)cc2c(C3CCNCC3)c[nH]c12` ?
Ans. 12

Qu. Reported %Inh for NEK5, given CN(C)CC(O)COc1ccc(Nc2nccc(-c3cnn4nc(N5CCOCC5)ccc34)n2)cc1 (centres unmarked) ?
Ans. 0

Qu. Reported %Inh for NEK5, given `Cl.Oc1cc(-c2nc(-c3ccccc3)[nH]c2-c2ccncc2)ccc1Cl` ?
Ans. 0

Qu. Reported %Inh for NEK5, given `C[C@H]1Oc2cc(cnc2N)-c2c(nn(C)c2C#N)CN(C)C(=O)c2ccc(F)cc21` ?
Ans. 0

Qu. Reported %Inh for NEK5, given `Cc1cc(C(=O)Nc2ccc(Oc3ccc4nc(NC(=O)C5CC5)cn4n3)cc2)nn1-c1ccccc1` ?
Ans. 0

Qu. Reported %Inh for NEK5, given `Cc1n[nH]c2ccc(-c3cc(OC[C@@H](N)Cc4ccccc4)cnc3-c3ccoc3)cc12.O=C(O)C(F)(F)F.O=C(O)C(F)(F)F` ?
Ans. 0

Qu. Reported %Inh for NEK5, given `C=CC(=O)Nc1cc2c(Nc3ccc(F)c(Cl)c3)ncnc2cc1OCCCN1CCOCC1` ?
Ans. 3

Qu. Reported %Inh for NEK5, given `COc1ccc(C[C@@H](CN)NC(=O)c2cc(Br)c(-c3ccnc4[nH]ccc34)s2)cc1.Cl.Cl` ?
Ans. 19

----------
test system: INSRR; conditions: concentration: 1 μM,replicates: in singlicate; n = 1
assay endpoint: %Inh (%)
Give just the numeric value; % need not be written.

Qu. Value lookup for %Inh; key = `CC(C)Nc1cc(-c2ccc3c(N)n[nH]c3c2)nc(N)n1`
Ans. 2

Qu. Value lookup for %Inh; key = `CN(C)CCOc1ccc(-c2cc(-c3c[nH]nc3-c3ccccn3)ccn2)cc1`
Ans. 14

Qu. Value lookup for %Inh; key = `CCN(CC)CCOc1ccc(Nc2ncc3cc(-c4c(Cl)cccc4Cl)c(=O)n(C)c3n2)cc1`
Ans. 47

Qu. Value lookup for %Inh; key = `C[C@H]1Oc2cc(cnc2N)-c2c(nn(C)c2C#N)CN(C)C(=O)c2ccc(F)cc21`
Ans. 13

Qu. Value lookup for %Inh; key = Cl.Cl.Nc1nc(-c2ccc3c(N)n[nH]c3c2)cc(N2CCCC(NC(=O)c3ccccc3)C2)n1 (stereo not shown)
Ans. 0

Qu. Value lookup for %Inh; key = `C=CC(=O)Nc1cc2c(Nc3ccc(F)c(Cl)c3)ncnc2cc1OCCCN1CCOCC1`
Ans. 0

Qu. Value lookup for %Inh; key = `C[C@@H](Oc1cc(-c2cnn(C3CCNCC3)c2)cnc1N)c1c(Cl)ccc(F)c1Cl`
Ans. 50

Qu. Value lookup for %Inh; key = `Cc1n[nH]c2ccc(-c3cc(OC[C@@H](N)Cc4ccccc4)cnc3-c3ccoc3)cc12.O=C(O)C(F)(F)F.O=C(O)C(F)(F)F`
Ans. 0

Qu. Value lookup for %Inh; key = `Nc1nc(Nc2ccccc2)cc(-c2ccc3c(N)n[nH]c3c2)n1`
Ans. 6

Qu. Value lookup for %Inh; key = `C[C@@H]1CCN(C(=O)CC#N)C[C@@H]1N(C)c1ncnc2[nH]ccc12`
Ans. 0

Qu. Value lookup for %Inh; key = `NC(=O)c1cc(-c2ccccc2)cc2c(C3CCNCC3)c[nH]c12`
Ans. 2

Qu. Value lookup for %Inh; key = `Cl.Cl.NC[C@H](CC1CCCCC1)NC(=O)c1cc(Br)c(-c2ccnc3[nH]ccc23)s1`
Ans. 0

Qu. Value lookup for %Inh; key = `CCn1c(-c2nonc2N)nc2c(C#CC(C)(C)O)nc(OCCN)cc21.Cl.Cl`
Ans. 9

Qu. Value lookup for %Inh; key = `CCN(CC)CCCCNc1ncc2cc(-c3c(Cl)cccc3Cl)c(NC(=O)NC(C)(C)C)nc2n1`
Ans. 0

Qu. Value lookup for %Inh; key = `O=C(NCCNc1ccnc(NCc2ccc(F)cc2)n1)c1cc2ccccc2s1`
Ans. 0

Qu. Value lookup for %Inh; key = `CNC(=O)c1ccccc1Sc1ccc2c(/C=C/c3ccccn3)n[nH]c2c1`
Ans. 57

Source: paper PMC5540273
